Readings of Ki for the listed molecules
testedTarget: 5HT1a (Homo sapiens, UniProt P08908)
Sequence (P08908 1-422): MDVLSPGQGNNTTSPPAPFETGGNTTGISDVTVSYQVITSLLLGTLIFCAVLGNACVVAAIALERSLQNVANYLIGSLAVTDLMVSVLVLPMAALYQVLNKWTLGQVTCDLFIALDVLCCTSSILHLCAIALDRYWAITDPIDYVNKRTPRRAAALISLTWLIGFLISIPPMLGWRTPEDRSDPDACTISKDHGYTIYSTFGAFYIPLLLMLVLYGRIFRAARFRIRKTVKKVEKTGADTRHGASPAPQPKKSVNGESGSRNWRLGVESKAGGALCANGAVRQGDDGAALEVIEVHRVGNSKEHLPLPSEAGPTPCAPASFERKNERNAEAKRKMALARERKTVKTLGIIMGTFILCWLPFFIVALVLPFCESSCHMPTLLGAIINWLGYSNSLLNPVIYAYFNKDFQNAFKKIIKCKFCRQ
testDetails: Secondary radioligand binding assay (Ki)
Structures can show the parent of a compound that is named as a salt.
reportedMetric: Ki (nM)

                                   molecule  measurednumber
0  COc1ccc2c(c1)C(=O)N(CCN1CCN(c3ccccc3OC)CC1)C2 [GFR-VII-280-HCl]             2.4
1  COc1ccc2c(c1)C(=O)N(CCCN1CCN(c3ccccc3OC)CC1)C2             6.5
2  CC1Cc2ccccc2N1C(=O)CN1CCN(c2ccccc2)CC1 (centres unmarked)            8430
3  CC1Cc2ccccc2N1C(=O)CN1CCN(Cc2ccccc2)CC1 (centres unmarked)            7080
4  COc1cc2c(cc1OC)C(=O)N(CCCCN1CCN(c3ccccc3OC)CC1)C2              23
